Test system: hT40, dGA, dGAE and truncated tau fragments
Assay: Binding ELISA / epitope mapping of anti-tau scAbs with truncated tau proteins and 13mer peptides
Design: species or system human
Details: Table 15; binding ELISA; residue numbers of hT40
Readout: Tau proteins/fragments with positive scAb reactivity

### Prompt For E2A6: dGAE (391E) specific clone, Table 9; SEQ ID NO: 252 (protein, E2A6 amino acid sequence) scFv: QVQLQESGPSLVKPSQTLSLTCTVSGFSLTDWGVAWVRQAPGKALEWLGTMRSGGTTDDNPALKSRLSITRDTSKSQVSLSLSSVTTEDMAMYYCARGYLSGVHYAWGRGLLVTVSSEGKSSGASGESKVDDRVVRTQPSSVSKSLGQSVSITCSGSSSNVGAGNYVGWFQQVPGSAPKLLIYGATNRASGVPARFSGSKSGVTATLTITSLQAEDEADYYCASIDTSRSHIFGSGTRLTVLG , what is its reported Tau proteins/fragments with positive scAb reactivity?
### Response 297-391 (dGAE)
